- procedure.summary: aqueous solubility of SN-38 (own data and literature)
- Type: physicochemical
- run.conditions: water (aqueous solution) at pH 3, pH 3, aqueous buffer; read-out: intrinsic aqueous solubility of SN-38 lactone
property.label: solubility (µg/mL)
Give bare numbers, in µg/mL.

Query :: Any idea what solubility was measured for CCc1c2c(nc3ccc(O)cc13)-c1cc3c(c(=O)n1C2)COC(=O)[C@]3(O)CC [SN-38, 7-ethyl-10-hydroxycamptothecin] ?
Result :: 8

Hey, just so you know, these numbers are from patent US20260000784A1.
